Tested on: S. cerevisiae SK1 pCDA2-eGFP (USY613), sporulating;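 also: active if sensitivity score above 5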
PROTOCOL: CDA2-GFP sporulation assay sensitivity score (z-score vs DMSO controls); higher = stronger inhibition of sporulation, active = hit call of the paper
Counter-ions that a name gives are not always drawn.
Would you mind telling me the reported CDA2-GFP sporulation assay sensitivity score of each entry?
Answers are plain numbers.

Example results:
>>> value_measured("O=c1[nH]c(=O)n(C2CCCO2)cc1F (stereo unspecified) [Ftorafur] (stock concentration (mM, diluted 1:100): 10)")
0.02
>>> value_measured("Nc1ccn([C@H]2CC[C@@H](CO)O2)c(=O)n1 [Zalcitabine] (stock concentration (mM, diluted 1:100): 10)")
1.61
>>> value_measured("CC(=O)CCCCn1cnc2c1c(=O)n(C)c(=O)n2C [Lomifylline] (stock concentration (mM, diluted 1:100): 10)")
-2.21

Provide CDA2-GFP sporulation assay sensitivity score for all items below, preserving their order.
1. CNC(=N)NCCC[C@H](N)C(=O)O [omega-N-Methylarginine] (stock concentration (mM, diluted 1:100): 9.3)
2. CC(C)(C)C(O)/C=C/c1ccc2c(c1)OCO2 (stereo unspecified) [Stiripentol] (stock concentration (mM, diluted 1:100): 10)
3. CN1[C@@H]2CC[C@H]1C[C@@H](OC(=O)c1c[nH]c3ccccc13)C2 [Tropisetron hydrochloride] (stock concentration (mM, diluted 1:100): 7.7)

## Output
1. 1.34
2. 5.09
3. 1.1

###

Test system: S. cerevisiae NKY1551 his4x/his4B, sporulating;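 also: active if sensitivity score above 5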
PROTOCOL: HIS4 meiotic recombination assay sensitivity score (z-score vs DMSO controls); higher = stronger inhibition of sporulation/recombination, active = hit call of the paper
Would you mind telling me the reported HIS4 meiotic recombination assay sensitivity score of each entry?
Give bare numbers.

Example results:
>>> value_measured("CN1CCN(C2=Nc3cc(F)ccc3Cc3ccccc32)CC1 [Fluperlapine] (stock concentration (mM, diluted 1:100): 10)")
-1.76
>>> value_measured("C[C@H](CCC(=O)O)[C@H]1CC[C@H]2[C@@H]3C(=O)C[C@@H]4CC(=O)CC[C@]4(C)[C@H]3CC(=O)[C@]12C [Dehydrocholic acid] (stock concentration (mM, diluted 1:100): 10)")
-0.93

Provide HIS4 meiotic recombination assay sensitivity score for all items below, preserving their order.
1. CN(C)CCc1c[nH]c2ccc(C[C@H]3COC(=O)N3)cc12 [Zolmitriptan] (stock concentration (mM, diluted 1:100): 10)
2. COC(=O)C1=C(C)NC(C)=C(C(=O)OC)C1c1ccccc1[N+](=O)[O-] [Nifedipine] (stock concentration (mM, diluted 1:100): 10.7)
3. COCCOC(=O)C1=C(C)NC(C)=C(C(=O)OC(C)C)C1c1cccc([N+](=O)[O-])c1 (stereo not given) [Nimodipine] (stock concentration (mM, diluted 1:100): 10)

## Output
1: 0.22; 2: 1.3; 3: 4.27

###

Test system: S. cerevisiae BY4741 (wild-type), vegetative growth in YPD
PROTOCOL: growth sensitivity score (doubling time z-score vs DMSO controls); higher = slower growth, strongly negative scores also mark growth inhibition (complete suppression), active = hit call of the paper
Where a name gives a salt, the structure may show the parent alone.
So basically: growth sensitivity score at -0.2 or higher? That is true. Lower than -0.2? That is false.

>>> discrete_label("CC[N+](C)(CC)CCOC(=O)C(O)(c1ccccc1)C1CCCCC1 (stereo not given) [Oxyphenonium bromide] (stock concentration (mM, diluted 1:100): 10)")
"true"

## Input Hello, I need to know if O=C1[C@H](CC[C@H](O)c2ccc(F)cc2)[C@@H](c2ccc(O)cc2)N1c1ccc(F)cc1 [Ezetimibe] (stock concentration (mM, diluted 1:100): 10) has measured growth sensitivity score not below -0.2. Thanks!
## Output false

## Input Hello, I need to know if CN(C)CCOC(C)(c1ccccc1)c1ccccn1 (stereo not given) [Doxylamine succinate] (stock concentration (mM, diluted 1:100): 10) has measured growth sensitivity score not below -0.2. Thanks!
## Output true

## Input Hello, I need to know if Cc1nccn1CC1CCc2c(c3ccccc3n2C)C1=O (stereo not given) [Ondansetron hcl] (stock concentration (mM, diluted 1:100): 8.9) has measured growth sensitivity score not below -0.2. Thanks!
## Output false

## Input Hello, I need to know if CO[C@H]1/C=C/O[C@@]2(C)Oc3c(C)c(O)c4c(O)c(c5c(nc6cc(C)ccn65)c4c3C2=O)NC(=O)/C(C)=C\C=C\[C@H](C)[C@H](O)[C@@H](C)[C@@H](O)[C@@H](C)[C@H](OC(C)=O)[C@@H]1C [Rifaximin] (stock concentration (mM, diluted 1:100): 10) has measured growth sensitivity score not below -0.2. Thanks!
## Output false

###

Tested on: S. cerevisiae BY4741 (wild-type), vegetative growth in YPD
PROTOCOL: growth sensitivity score (doubling time z-score vs DMSO controls); higher = slower growth, strongly negative scores also mark growth inhibition (complete suppression), active = hit call of the paper
Thanks in advance; please answer with one of these: active, inactive

## Input For this molecule, state the assay outcome: Nc1nc(Cl)nc2c1ncn2[C@H]1C[C@H](O)[C@@H](CO)O1 [2-Chloro-2-Deoxyadenosine] (stock concentration (mM, diluted 1:100): 10)
## Output inactive

## Input For this molecule, state the assay outcome: COc1ccccc1N1CCN(CC(O)COc2cccc3ccccc23)CC1 (stereo unspecified) [Naftopidil] (stock concentration (mM, diluted 1:100): 10)
## Output active

## Input For this molecule, state the assay outcome: CC[C@H](C)C(=O)O[C@H]1C[C@H](O)C=C2C=C[C@H](C)[C@H](CC[C@@H](O)C[C@@H](O)CC(=O)O)[C@H]21 [Pravastatin sodium] (stock concentration (mM, diluted 1:100): 9.5)
## Output inactive

## Input For this molecule, state the assay outcome: COc1ccc(CCN(C)CCCC(C#N)(c2ccc(OC)c(OC)c2)C(C)C)cc1OC (stereo unspecified) (stock concentration (mM, diluted 1:100): 10)
## Output inactive

## Input For this molecule, state the assay outcome: Nc1ncnc2c1ncn2[C@@H]1O[C@H](CO)C[C@@H]1O [3-Deoxydenosine] (stock concentration (mM, diluted 1:100): 10)
## Output inactive

###

Tested on: S. cerevisiae AD1-9 (efflux-pump deficient), vegetative growth in YPD
PROTOCOL: growth sensitivity score (doubling time z-score vs DMSO controls); higher = slower growth, strongly negative scores also mark growth inhibition (complete suppression), active = hit call of the paper
Would you mind telling me the reported growth sensitivity score of each entry?
Answers are plain numbers.

Example results:
>>> value_measured("COc1ccc2c3c1O[C@H]1C[C@@H](O)C=C[C@@]31CCN(C)C2 [Galanthamine] (stock concentration (mM, diluted 1:100): 8.8)")
-1.27
>>> value_measured("O=C(O)COCCN1CCN([C@H](c2ccccc2)c2ccc(Cl)cc2)CC1 [Levocetirizine] (stock concentration (mM, diluted 1:100): 10.7)")
-1.54
>>> value_measured("CC(=O)O[C@@]12CO[C@@H]1C[C@H](O)[C@@]1(C)C(=O)[C@H](O)C3=C(C)[C@@H](OC(=O)[C@H](O)[C@@H](NC(=O)OC(C)(C)C)c4ccccc4)C[C@@](O)([C@@H](OC(=O)c4ccccc4)[C@H]21)C3(C)C [Docetaxel] (stock concentration (mM, diluted 1:100): 10)")
-0.53
>>> value_measured("CN(C)CCOC(C)(c1ccccc1)c1ccccn1 (stereo not given) [Doxylamine succinate] (stock concentration (mM, diluted 1:100): 10)")
-0.68

Then this compound:
## Input If you can, please state the reported growth sensitivity score value of CC#C[C@]1(O)CC[C@H]2[C@@H]3CCC4=CC(=O)CCC4=C3[C@@H](c3ccc(N(C)C)cc3)C[C@@]21C [Mifepristone] (stock concentration (mM, diluted 1:100): 10) .
## Output 172

###

Would you mind telling me the reported growth sensitivity score of each entry?
Tested on: S. cerevisiae BY4741 (wild-type), vegetative growth in YPD
PROTOCOL: growth sensitivity score (doubling time z-score vs DMSO controls); higher = slower growth, strongly negative scores also mark growth inhibition (complete suppression), active = hit call of the paper
Where a name gives a salt, the structure may show the parent alone.
Numbers only.

Example results:
>>> value_measured("CC(=O)NC[C@H]1CN(c2ccc(N3CCOCC3)c(F)c2)C(=O)O1 [Linezolide] (stock concentration (mM, diluted 1:100): 10)")
-1.67
>>> value_measured("C[C@H]1[C@H](OC(=O)CCC(=O)O)O[C@@H]2O[C@@]3(C)CC[C@H]4[C@H](C)CC[C@@H]1[C@@]24OO3 [Artesunate] (stock concentration (mM, diluted 1:100): 10)")
2.81
>>> value_measured("NC1CCN(c2nc3c(cc2F)c(=O)c(C(=O)O)cn3-c2ccc(F)cc2F)C1 (stereo not given) [Tosufloxacin tosylate] (stock concentration (mM, diluted 1:100): 7)")
-0.39
>>> value_measured("CN(C)[C@@H]1C(O)=C(C(=O)NCN2CCCC2)C(=O)[C@@]2(O)C(O)=C3C(=O)c4c(O)cccc4[C@@](C)(O)[C@H]3C[C@@H]12 [Rolitetracycline] (stock concentration (mM, diluted 1:100): 10)")
-1.17

Then this compound:
## Input Give the reported growth sensitivity score for Cc1ccc(O)c([C@H](CCN(C(C)C)C(C)C)c2ccccc2)c1 [Tolterodine tartrate] (stock concentration (mM, diluted 1:100): 6.9) (system: S. cerevisiae BY4741 (wild-type), vegetative growth in YPD).
## Output 0.36
